All values here come from patent US20150274820A1.

Each record here notes measured koff.
- system: T1, recombinant human VEGF165 (human, UniProt P15692 27-191)
- T1 construct: mature; Isoform VEGF165 of the entry; also called hVEGF165; hVEGF
- T1 sequence (P15692 other isoform, or with tags, fused parts or gaps): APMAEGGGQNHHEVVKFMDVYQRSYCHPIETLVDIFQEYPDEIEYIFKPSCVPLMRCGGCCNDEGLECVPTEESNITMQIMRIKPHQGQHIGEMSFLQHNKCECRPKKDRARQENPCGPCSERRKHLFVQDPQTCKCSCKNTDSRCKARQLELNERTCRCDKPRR
- method-summary: Biacore SPR, VEGF immobilized, pH 7.4
Give just the number in s⁻¹; leave the unit off.

Here is how some binders turned out for koff.
binder: 375-max (scFv, VL and VH tied by name; also called Protein Nr; 873) scFv: EIVMTQSPSTLSASVGDRVIITCQASENINIWLSWYQQKPGKAPKLLIYQASKLASGVPSRFSGSGSGTQFTLTISSLQPDDFATYYCQNNYSYNRYGAPFGQGTKLTVLGGGGGSGGGGSGGGGSGGGGSEVQLVESGGGLVQPGGSLRLSCKASGFSFTTTDYMCWVRQAPGKGLEWVGCILAGDGSTYYANWAKGRFTGSKDTSKNTVYLQMNSLRAEDTAVYYCARSDPASSWSFALWGQGTLVTVSS
endpoint-name: koff
result: 0.242
--
binder: 435-min (scFv, VL and VH tied by name; also called Protein Nr; 944) scFv: EIVMTQSPSTLSASVGDRVIITCQASQSIGSSLAWYQQKPGKAPKLLIYTAANLASGVPSRFSGSGSGAEFTLTISSLQPDDFATYYCQNFATSDTVTFGQGTKLTVLGGGGGSGGGGSGGGGSGGGGSEVQLVESGGGLVQPGGSLRLSCAASGFSLNTNYWMCWVRQAPGKGLEWVSCMYTGSYNRAYYASWAKGRFTISRDNSKNTLYLQMNSLRAEDTAVYYCAKGSNWYSDLWGQGTLVTVSS
endpoint-name: koff
result: 0.0143

# koff lookup, item 511-min (scFv, VL and VH tied by name; also called Protein Nr) scFv: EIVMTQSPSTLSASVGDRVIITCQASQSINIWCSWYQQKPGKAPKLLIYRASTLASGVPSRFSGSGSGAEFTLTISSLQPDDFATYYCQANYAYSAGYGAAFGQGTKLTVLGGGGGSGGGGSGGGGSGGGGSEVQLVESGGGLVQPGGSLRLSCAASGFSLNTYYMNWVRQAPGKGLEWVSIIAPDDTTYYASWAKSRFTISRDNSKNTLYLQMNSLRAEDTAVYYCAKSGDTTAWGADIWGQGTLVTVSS 0.000885
